Reported Ki is given for each of the following compounds.
Target: Psip1 (Prochlorococcus marinus, UniProt Q7V066)
Construct: gene PMM1416; predicted signal peptide removed; codon-optimized; pET-23a(+), C-terminal His-tag; E. coli BL21(DE3); reconstituted with Fe and Ca
Sequence (Q7V066 24-694): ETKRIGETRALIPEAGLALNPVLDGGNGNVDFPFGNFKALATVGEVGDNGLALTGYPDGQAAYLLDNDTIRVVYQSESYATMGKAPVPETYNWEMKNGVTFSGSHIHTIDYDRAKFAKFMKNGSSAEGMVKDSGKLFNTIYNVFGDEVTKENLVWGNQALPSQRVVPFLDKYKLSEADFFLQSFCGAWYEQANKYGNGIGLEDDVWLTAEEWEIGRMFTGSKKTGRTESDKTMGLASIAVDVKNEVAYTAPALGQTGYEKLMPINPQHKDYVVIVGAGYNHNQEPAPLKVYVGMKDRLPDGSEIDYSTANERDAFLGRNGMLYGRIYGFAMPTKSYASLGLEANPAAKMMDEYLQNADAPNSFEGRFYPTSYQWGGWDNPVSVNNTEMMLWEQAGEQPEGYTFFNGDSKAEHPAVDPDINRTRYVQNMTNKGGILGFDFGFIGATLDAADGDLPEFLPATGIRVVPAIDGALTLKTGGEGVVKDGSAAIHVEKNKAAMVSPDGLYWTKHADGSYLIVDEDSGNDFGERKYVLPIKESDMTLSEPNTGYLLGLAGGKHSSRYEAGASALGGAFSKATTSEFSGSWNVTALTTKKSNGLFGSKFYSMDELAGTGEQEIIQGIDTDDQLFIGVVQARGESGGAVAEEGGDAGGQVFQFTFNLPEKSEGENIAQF
Test: inhibition of MUF release from MUF-P
Format: biochemical
Conditions: competing with MUF-P; estimated Ki; Fe(III) and Ca2+; Pi release by phosphomolybdate assay
Excerpt: inhibition of MUF release from […] on Psip1 | natural organic P compounds: glycerol-1-phosphate (G1P) | glycerol-3-phosphate (G3P) | phosphocholine (PC) | phosphorylethanolamine (PE) | adenosine monophosphate (AMP) | glucosamine-6-phosphate (Ga6P) by measuring the inhibition of MUF release from […]
API: value field is a number in nM; no unit string.

Solved cases below.
Query: Fill in the blank: the reported Ki of O=P(O)(O)OC[C@H](O)CO [glycerol-3-phosphate] is ____.
Reply: 790

Query: Fill in the blank: the reported Ki of N[C@H]1C(O)O[C@H](COP(=O)(O)O)[C@@H](O)[C@@H]1O (stereo partly drawn) [glucosamine-6-phosphate] is ____.
Reply: 600

Next:
Query: Fill in the blank: the reported Ki of C[N+](C)(C)CCOP(=O)([O-])O [phosphocholine] is ____.
Reply: 2200

Query: Fill in the blank: the reported Ki of NCCOP(=O)(O)O [phosphorylethanolamine] is ____.
Reply: 4460

Query: Fill in the blank: the reported Ki of O=P(O)(O)OCC(O)CO (stereo not drawn) [glycerol-1-phosphate] is ____.
Reply: 1200

Query: Fill in the blank: the reported Ki of Nc1ncnc2c1ncn2[C@@H]1O[C@H](COP(=O)(O)O)[C@@H](O)[C@H]1O [adenosine monophosphate] is ____.
Reply: 1520
